- Tested on: human factor XIa (Homo sapiens, UniProt P03951)
- Sequence (P03951 388-625 limits assumed): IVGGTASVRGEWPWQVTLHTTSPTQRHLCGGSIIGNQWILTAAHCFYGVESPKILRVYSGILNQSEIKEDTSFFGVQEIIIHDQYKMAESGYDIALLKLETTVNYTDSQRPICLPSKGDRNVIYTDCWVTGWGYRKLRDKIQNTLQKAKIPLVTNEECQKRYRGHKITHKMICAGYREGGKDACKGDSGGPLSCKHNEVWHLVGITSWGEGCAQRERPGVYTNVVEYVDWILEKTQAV
- Sequence (P03951 19-387 partner limits assumed): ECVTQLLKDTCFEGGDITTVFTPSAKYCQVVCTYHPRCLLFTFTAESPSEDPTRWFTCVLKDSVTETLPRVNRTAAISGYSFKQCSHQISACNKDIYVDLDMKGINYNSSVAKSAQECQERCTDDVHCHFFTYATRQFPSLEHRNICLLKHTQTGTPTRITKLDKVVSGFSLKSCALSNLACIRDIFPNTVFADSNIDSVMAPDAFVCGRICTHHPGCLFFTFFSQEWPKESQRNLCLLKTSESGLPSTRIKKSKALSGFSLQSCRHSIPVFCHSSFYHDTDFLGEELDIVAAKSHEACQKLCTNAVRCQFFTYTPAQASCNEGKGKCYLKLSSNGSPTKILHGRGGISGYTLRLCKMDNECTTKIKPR
- Experiment: Factor XIa Assay
- Format: biochemical
- Experimental context: human factor XIa 0.04 nM, substrate GPR-AFC, 30 min pre-incubation at 25° C., pH 7.4; read-out: FXIa IC50
pIC50: −log10 of the molar value.
Property measured: pIC50

• CC(c1cnc(N2Cc3cnn(C)c3C2)nc1)n1cc(NC(=O)c2cncc(-c3c(C(F)F)ccc(Cl)c3F)n2)cn1 (stereo not shown) [Example 94] = 5.08
• O=C(Nc1cnn(Cc2ccc(N3CCC(O)C3)nc2)c1)c1cncc(-c2c(C(F)F)ccc(Cl)c2F)n1 (stereo not shown) [Example 123] = 5.48
• CCc1ncc(-c2c(C(F)F)ccc(Cl)c2F)nc1C(=O)Nc1cnn(Cc2cnc(N3CCC3)nc2)c1 [Example 14] = 6.51
• Cc1nc(N2CCC2)ncc1[C@@H](C)n1cc(NC(=O)c2cncc(-c3c(C(F)F)ccc(Cl)c3F)n2)cn1 (single isomer, unassigned) [Example 70] = 6.31
• C[C@@H](c1cnc(N2CCC2)nc1)n1cc(NC(=O)c2cncc(-c3c(C(F)(F)F)ccc(Cl)c3F)n2)cn1 (single isomer, unassigned) [Example 55] = 5.40
• C[C@H](CO)NC[C@@H]1[C@@H]2C[C@@H]2CN1c1ncc(Cn2cc(NC(=O)c3cncc(-c4c(C(F)F)ccc(Cl)c4F)n3)cn2)cn1 [Example 143] = 6.28

[I] CN(CC1CCCN1c1ncc(Cn2cc(NC(=O)c3cncc(-c4c(C(F)F)ccc(Cl)c4F)n3)cn2)cn1)CC1(O)CC1 (single isomer, unassigned) [Example 141]
[II] O=C(Nc1cnn(Cc2cnc(N3CCCC3CN3CC[C@H](F)C3)nc2)c1)c1cncc(-c2c(C(F)F)ccc(Cl)c2F)n1 (stereo partly shown) [Example 148]
[III] COc1ccc(-n2cnnn2)c(-c2cncc(C(=O)Nc3cnn(C(C)c4cnc(N5CCC5)nc4)c3)n2)c1 (single isomer, unassigned) [Example 61]
[IV] Cc1cc(N2CCC2)ncc1Cn1cc(NC(=O)c2cncc(-c3c(C(F)F)ccc(Cl)c3F)n2)cn1 [Example 17]
Query :: Let's sort these by pIC50, smallest first. Go ahead? # format: label list in the order the request specifies
Result :: I, II, IV, III
(I: 5.32, II: 5.53, IV: 5.86, III: 6.18)
